Please respond with reported pIC50 for every item in the list.
target: recombinant autotaxin (Homo sapiens, UniProt Q13822); experiment: Autotaxin test (enzyme test), Amplex Red fluorescence with LPC substrate; settings: autotaxin inhibition (enzyme test)
pIC50: −log10 of the molar value.

Completed entries (count: 5):
compound="O=C1Nc2ccc(-c3ccccc3F)cc2C(=O)N2CCN(C(=O)c3ccccn3)CC12 (centres unmarked) [Compound A15]" subject_of_test="recombinant autotaxin (Homo sapiens, UniProt Q13822)" property=pIC50 endpoint_result="< 6.00"
compound="CCCc1nn(C)cc1C(=O)N1CCN2C(=O)c3cc(-c4ccc(Cl)cc4)ccc3NC(=O)C2C1 (centres unmarked) [Compound A23]" subject_of_test="recombinant autotaxin (Homo sapiens, UniProt Q13822)" property=pIC50 endpoint_result="< 6.00"
compound="CC(C)(C)C(=O)N1CCN2C(=O)c3cc(-c4ccc(Cl)cc4)ccc3NC(=O)C2C1 (centres unmarked) [Compound A109]" subject_of_test="recombinant autotaxin (Homo sapiens, UniProt Q13822)" property=pIC50 endpoint_result="< 6.00"
compound="O=C([C@@H]1CCCN1C1CCNCC1)N1CCN2C(=O)c3cc(-c4ccc(Cl)cc4F)ccc3N(CCC3CCNCC3)C(=O)[C@H]2C1 [Compound A158]" subject_of_test="recombinant autotaxin (Homo sapiens, UniProt Q13822)" property=pIC50 endpoint_result="< 6.00"
compound="CC(C)(C)CC(=O)N1CCN2C(=O)c3cc(-c4ccc(Cl)c(F)c4)ccc3NC(=O)C2C1 (centres unmarked) [Compound A94]" subject_of_test="recombinant autotaxin (Homo sapiens, UniProt Q13822)" property=pIC50 endpoint_result="< 6.00"

# return pIC50 for each item in the list
1. CC(C)(C)CC(=O)N1CCN2C(=O)c3cc(-c4ccc(Cl)cc4F)ccc3N(CC(N)=O)C(=O)[C@H]2C1 [Compound A150]
2. CC(C)(C)CC(=O)N1CCN2C(=O)c3cc(-c4cc(Cl)ccc4F)ccc3NC(=O)C2C1 (centres unmarked) [Compound A85]
3. O=C1Nc2ccc(-c3ccc(Cl)cc3)cc2C(=O)N2CCN(C(=O)C(O)c3cccc(Cl)c3)CC12 (centres unmarked) [Compound A41]

Reply:
6.00 to 7.00
< 6.00
< 6.00

====

Kindly state remaining activity at 10 µM for each of the entries shown.
biological target: recombinant autotaxin (Homo sapiens); construct: made in house; host or cells: Hi5 insect cells (baculovirus); assay: Autotaxin test (enzyme test), Amplex Red fluorescence with LPC substrate; type: biochemical; conditions: 10 μM compound; autotaxin inhibition (enzyme test); read-out: % Control at 10 μM
Numbers only, in %.

Examples with their reported remaining activity at 10 µM follow.
molecule="CC(C)(C)CC(=O)N1CCN2C(=O)c3cc(-c4cc(F)ccc4F)ccc3NC(=O)C2C1 (stereo not shown) [Compound A89]" property="remaining activity at 10 µM" endpoint_result=4
molecule="COC(C(=O)N1CCN2C(=O)c3cc(-c4ccc(Cl)cc4)ccc3NC(=O)C2C1)c1ccccc1 (stereo not shown) [Compound A42]" property="remaining activity at 10 µM" endpoint_result=12
molecule="CC(C)CS(=O)(=O)N1CCN2C(=O)c3cc(-c4ccc(Cl)cc4F)ccc3NC(=O)[C@H]2C1 [Compound A173]" property="remaining activity at 10 µM" endpoint_result=1

Now, please, on to the next molecule.
Task item: Entry O=C1Nc2ccc(-c3ccc(Cl)cc3)cc2C(=O)N2CCN(C(=O)[C@@H](O)C3CCCCC3)CC12 (stereo partly shown) [Compound A113] : reported remaining activity at 10 µM = ?
Reply: -6
